# METHOD_SUMMARY: AUC (infinity) in nude rat at 10 mg/kg, po
# Assay type: ADME, organism-based
# Design: time infinity, dose 10 mg/kg, route oral
# CONDITIONS: plasma

TEST_SMILES	AUC(0-inf), ng·h/mL
C[C@H]1Cc2ccccc2N1C(=O)Cc1nc(N2CCOCC2)cc(=O)[nH]1	2410

----------
# TEST_SYSTEM: Phosphatidylinositol 4,5-bisphosphate 3-kinase catalytic subunit alpha isoform (Homo sapiens, UniProt P42336)
# Sequence (P42336 whole entry, canonical isoform): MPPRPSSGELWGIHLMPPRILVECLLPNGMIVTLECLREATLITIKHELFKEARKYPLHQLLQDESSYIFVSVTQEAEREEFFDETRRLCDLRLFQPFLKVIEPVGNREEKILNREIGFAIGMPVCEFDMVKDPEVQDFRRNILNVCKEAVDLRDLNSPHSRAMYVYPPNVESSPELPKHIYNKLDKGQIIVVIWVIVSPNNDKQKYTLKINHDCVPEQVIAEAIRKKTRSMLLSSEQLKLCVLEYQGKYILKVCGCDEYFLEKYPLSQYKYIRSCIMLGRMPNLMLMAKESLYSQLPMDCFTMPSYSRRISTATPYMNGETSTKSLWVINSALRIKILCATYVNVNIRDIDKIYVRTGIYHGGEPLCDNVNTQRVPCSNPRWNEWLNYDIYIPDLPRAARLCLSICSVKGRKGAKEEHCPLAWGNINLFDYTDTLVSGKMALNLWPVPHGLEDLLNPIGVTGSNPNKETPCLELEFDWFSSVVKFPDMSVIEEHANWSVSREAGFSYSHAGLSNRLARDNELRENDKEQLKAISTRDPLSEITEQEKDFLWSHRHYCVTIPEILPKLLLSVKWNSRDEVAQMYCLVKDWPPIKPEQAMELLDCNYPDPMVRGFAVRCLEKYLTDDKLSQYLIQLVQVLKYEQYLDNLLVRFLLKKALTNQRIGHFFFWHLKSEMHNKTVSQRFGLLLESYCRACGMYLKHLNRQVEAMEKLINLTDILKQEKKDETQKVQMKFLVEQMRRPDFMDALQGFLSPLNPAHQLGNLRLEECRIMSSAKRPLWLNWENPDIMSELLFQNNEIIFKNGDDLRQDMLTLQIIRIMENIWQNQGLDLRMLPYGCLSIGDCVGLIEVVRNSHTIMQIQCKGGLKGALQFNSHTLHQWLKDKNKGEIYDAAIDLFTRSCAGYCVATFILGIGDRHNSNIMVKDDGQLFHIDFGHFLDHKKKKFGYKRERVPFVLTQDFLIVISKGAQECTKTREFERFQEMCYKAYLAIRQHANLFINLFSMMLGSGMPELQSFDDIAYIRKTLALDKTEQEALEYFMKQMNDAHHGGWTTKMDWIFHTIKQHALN
# METHOD_SUMMARY: Inhibition of N-terminal ploy-His-tagged human PI3Kalpha expressed in baculovirus-infected sf9 cells using PI(4,5)P2 as substrate after 15 mins by HTRF assay
Listing of entries alongside the reported IC50.
REPORTED_ENDPOINT: IC50 (nM)

COMPOUND	UNIT_ABBREVIATION	MEAS_VALUE
O=C(Cc1nc(N2CCOCC2)cc(=O)[nH]1)N1CCc2c(F)cccc21	nM	2450
O=C(Cc1nc(N2CCOCC2)cc(=O)[nH]1)N1CCc2ccccc21	nM	460
O=C(Cc1nc(N2CCOCC2)cc(=O)[nH]1)N1CCc2c(Cl)cccc21	nM	86
O=C(Cc1nc(N2CCOCC2)cc(=O)[nH]1)N1CCc2c(-c3ccncc3)cccc21	nM	1000
CC1(C)CN(C(=O)Cc2nc(N3CCOCC3)cc(=O)[nH]2)c2ccccc21	nM	5420
O=C(Cc1nc(N2CCOCC2)cc(=O)[nH]1)N1CCc2c(-c3cccnc3)cccc21	nM	361
Cc1cccc2c1CCN2C(=O)Cc1nc(N2CCOCC2)cc(=O)[nH]1	nM	138
CN1CCN(c2cccc3c2CCN3C(=O)Cc2nc(N3CCOCC3)cc(=O)[nH]2)CC1	nM	960
O=C(Cc1nc(N2CCOCC2)cc(=O)[nH]1)N1CCc2cc(Cl)ccc21	nM	2020
O=C(Cc1nc(N2CCOCC2)cc(=O)[nH]1)N1CCc2c(-c3ccccc3)cccc21	nM	217
O=C(Cc1nc(N2CCOCC2)cc(=O)[nH]1)N1CCc2cc(F)ccc21	nM	426
Cn1c(CC(=O)N2CCc3ccccc32)nc(N2CCOCC2)cc1=O	nM	4320
O=C(Cc1nc(N2CCOCC2)cc(=O)[nH]1)N1CCc2c(OC(F)(F)F)cccc21	nM	1000
O=C(Cc1nc(N2CCOCC2)cc(=O)[nH]1)N1CCc2c1cccc2C(F)(F)F	nM	390
COc1cccc2c1CCN2C(=O)Cc1nc(N2CCOCC2)cc(=O)[nH]1	nM	2420
O=C(Cc1nc(N2CCOCC2)cc(=O)[nH]1)N1CCc2c(-c3ccccn3)cccc21	nM	2380
CN1CCN(Cc2cccc3c2CCN3C(=O)Cc2nc(N3CCOCC3)cc(=O)[nH]2)CC1	nM	660
CC1CN(C(=O)Cc2nc(N3CCOCC3)cc(=O)[nH]2)c2ccccc21 (racemic)	nM	2260
O=C(Cc1nc(N2CCOCC2)cc(=O)[nH]1)N1CCc2c(Br)cccc21	nM	85

----------
# METHOD_SUMMARY: Metabolic stability in human liver microsomes at 5 uM after 20 mins
# CONDITIONS: liver microsomes
Reported remaining at 20 min, 5 µM values for a set of compounds
REPORTED_ENDPOINT: remaining at 20 min, 5 µM (%)

COMPOUND	REPORTED_ENDPOINT	UNIT_ABBREVIATION	MEAS_VALUE
O=C(Cc1nc(N2CCOCC2)cc(=O)[nH]1)N1CCc2c(Br)cccc21	remaining at 20 min, 5 µM	%	24
CC1CN(C(=O)Cc2nc(N3CCOCC3)cc(=O)[nH]2)c2ccccc21 (racemic)	remaining at 20 min, 5 µM	%	47
O=C(Cc1nc(N2CCOCC2)cc(=O)[nH]1)N1CCc2c1cccc2C(F)(F)F	remaining at 20 min, 5 µM	%	24
O=C(Cc1nc(N2CCOCC2)cc(=O)[nH]1)N1CCc2c(-c3ccccc3)cccc21	remaining at 20 min, 5 µM	%	40
Cc1cccc2c1CCN2C(=O)Cc1nc(N2CCOCC2)cc(=O)[nH]1	remaining at 20 min, 5 µM	%	32

Reference source for all entries: ChEMBL document CHEMBL3112424
